- Tested on: KB
- Measurement notes: Cytotoxicity against human KB cells after 72 hrs by sulforhodamine B colorimetric assay
- Type: functional, cell-based
Entries and their log10 of IC50
Measured endpoint: log10 of IC50 (log10 of the value in nM)

>>> measured("CC[C@@]1(OC(=O)CN/C(Cc2ccc(C)cc2)=N/S(=O)(=O)c2ccc(C)cc2)C(=O)OCc2c1cc1n(c2=O)Cc2cc3ccccc3nc2-1")
1.87
>>> measured("CC[C@@]1(OC(=O)CN/C(Cc2ccc(OC)cc2)=N/S(=O)(=O)CC)C(=O)OCc2c1cc1n(c2=O)Cc2cc3ccccc3nc2-1")
1.81
>>> measured("CCc1c(OP(=O)(O)OC)ccc2nc3c(cc12)Cn1c-3cc2c(c1=O)COC(=O)[C@@]2(CC)OC(=O)CN/C(Cc1ccc(OC)cc1)=N/S(=O)(=O)c1ccc(C)cc1")
2.15
>>> measured("CC[C@@]1(OC(=O)CCCN/C(Cc2ccc(OC)cc2)=N\\S(=O)(=O)c2ccc(C)cc2)C(=O)OCc2c1cc1n(c2=O)Cc2cc3ccccc3nc2-1")
2.92
>>> measured("CC[C@@]1(OC(=O)CN/C(Cc2ccc(OC)cc2)=N/S(=O)(=O)c2cccnc2)C(=O)OCc2c1cc1n(c2=O)Cc2cc3ccccc3nc2-1")
1.97
>>> measured("CC[C@@]1(OC(=O)CN/C(Cc2ccc(OC)cc2)=N/S(=O)(=O)c2ccc(OC)cc2)C(=O)OCc2c1cc1n(c2=O)Cc2cc3ccccc3nc2-1")
1.71
>>> measured("CCc1c2c(nc3ccccc13)-c1cc3c(c(=O)n1C2)COC(=O)[C@@]3(CC)OC(=O)C(C)N/C(Cc1ccc(OC)cc1)=N/S(=O)(=O)c1ccc(C)cc1 (stereo partly specified)")
1.93
>>> measured("CC[C@@]1(OC(=O)CCN/C(Cc2ccc(OC)cc2)=N\\S(=O)(=O)c2ccc(C)cc2)C(=O)OCc2c1cc1n(c2=O)Cc2cc3ccccc3nc2-1")
2.79
>>> measured("CC[C@@]1(OC(=O)CN/C(Cc2ccc(OC)cc2)=N/S(=O)(=O)c2ccc(Cl)cc2)C(=O)OCc2c1cc1n(c2=O)Cc2cc3ccccc3nc2-1")
1.86
>>> measured("CC[C@@]1(OC(=O)CN/C(Cc2ccc(OC)cc2)=N/S(=O)(=O)c2ccc([N+](=O)[O-])cc2)C(=O)OCc2c1cc1n(c2=O)Cc2cc3ccccc3nc2-1")
1.17
>>> measured("CC[C@@]1(OC(=O)CN/C(Cc2ccc(OC)cc2)=N/S(=O)(=O)c2ccc(C)cc2)C(=O)OCc2c1cc1n(c2=O)Cc2cc3c([N+](=O)[O-])cccc3nc2-1")
3.85
>>> measured("CC[C@@]1(OC(=O)CN/C(Cc2ccc(OC)cc2)=N/S(=O)(=O)c2ccc(C)cc2)C(=O)OCc2c1cc1n(c2=O)C(OC)c2cc3ccccc3nc2-1 (stereo partly specified)")
3.88
>>> measured("CCc1c2c(nc3ccccc13)-c1cc3c(c(=O)n1C2)COC(=O)[C@@]3(CC)OC(=O)C(C)N/C(Cc1ccc(OC)cc1)=N/S(C)(=O)=O (stereo partly specified)")
1.98
>>> measured("CC[C@@]1(OC(=O)CN/C(Cc2ccc(OC)cc2)=N/S(=O)(=O)c2ccc(C)cc2)C(=O)OCc2c1cc1n(c2=O)Cc2cc3cccc([N+](=O)[O-])c3nc2-1")
4.05
>>> measured("CC[C@@]1(OC(=O)CN/C(Cc2ccc(OC)cc2)=N/S(=O)(=O)c2ccc3ccccc3c2)C(=O)OCc2c1cc1n(c2=O)Cc2cc3ccccc3nc2-1")
1.84
>>> measured("CC[C@@]1(OC(=O)CN/C(Cc2ccc(OC)cc2)=N/S(=O)(=O)c2ccc(C)cc2)C(=O)OCc2c1cc1n(c2=O)Cc2cc3cc(O)ccc3nc2-1")
1.80
